# target-or-system: MS2 coat protein, dlFG mutant (Escherichia phage MS2, UniProt P03612, del68-81insG)
# assay-notes: 4 mM Mg2+; no ligand; RNA-MaP array; 100 mM Tris-HCl pH 7.5, 80 mM KCl, 4 mM MgCl2, 0.1 mg/mL BSA, 1 mM DTT, 0.01 mg/mL yeast tRNA, 0.01% Tween-20; protein 1.5 nM to 3 uM; 37 C (Table S3)
# test-context: chain copies: 2; label: tethered by stalled RNA polymerase
readout-type: pKd
Value format note: pKd is -log10 of concentration (mol/L); just state the number.

As a guide, the following entries are already answered.
binder | pKd
Eterna 13277 (Sensor for hsa-mir-208a) (ssRNA) RNA: AGUUGUGGGAAACUAUAGCAGACGCUCGUACAUGAGGAUCACCCAUGUCUUGUAGGAGCUGUUUGCUCGUUUUAUGG | 7.20
Eterna 6446347 (Same State NG 2) (ssRNA) RNA: GGGUACAUCGGAGGAUAUCAUGUAAAUACAUGAGGAUCACCCAUGUCGGUGGAGACAUCGGAGAUUGAGAAGGCCGAUGUACCG | 6.57
Eterna 7730299 (Same State - Arginine B) (ssRNA) RNA: UGUAUGGACUGAAGGAGCGGGUAAAUAACCUGAGGAUCACCCAGGUAAAAGGCGAAAGCCACCCAGGUAGGUCGCAGUCCAUACU | 7.96
Eterna 10494 (Sensor v3, turn-off variant 2) (ssRNA) RNA: AGUACUAACACGAAAGUGUUAGUCCAAUAAGCUUGUGAAACAUGAGGAUCACCCAUGUCCUCAUAAGCUCGUCUUAU | 7.82
Eterna 5989868 (Exclusion 3) (ssRNA) RNA: GUAUCACGAGGAUAUACAUGAGGAUCACCCAUGUAGAAGCCAUGUGGUGCUCAAGUAUGUAGAAGGCGUGCUCC | 7.44

Request: I have this binder here, Eterna 6045632 (Brourd's mod of Exclusion 4) (ssRNA) RNA: CGGGCUGCUGUGAGGAUAUGCCUGUGGGUGCGUGGGUAGAAGGCACAUGAGGAUCACCCAUGUCCUGCAGCUCG , and I need its recorded pKd.
Response: 5.95

Request: I have this binder here, Eterna 7710066 (Exclusion - Tryptophan A) (ssRNA) RNA: AGCUGGGAUCCUCAGCGUCAAAGACGCAGUCGAGGACCGGUACGGCCGCCACUCGACACGAGGAUCACCCGUGUCAUUCCCAGCA , and I need its recorded pKd.
Response: 6.42

Request: I have this binder here, Eterna 5958897 (Exclusion NG 2) (ssRNA) RNA: AGCUGUGGCCGAGGAUAUCUAUCCCAAAUAACCGAAAUAUAAUCGGACAUGAGGAUCACCCAUGUAGAGAAGGCGGUCUCAGCA , and I need its recorded pKd.
Response: 7.55

Request: I have this binder here, Eterna 6146814 (Same State NG 1) (ssRNA) RNA: GGUGUCGCAUGAGGAUAUGGUCAGCUUUGCUGACCAGAAGGCAUGUCAAUAGACAUGAGGAUCACCCAUGUAGUAAAGACACCA , and I need its recorded pKd.
Response: 6.30

Request: I have this binder here, Eterna 7626312 (Exclusion - Theophylline A) (ssRNA) RNA: AGAUGCCACUGUGGAUAGCACGAUGCCGAUACCAGCUAGGAAACUAGCCCUUGGCAGCGGUACAUGAGGAUCACCCAUGUAUCCU , and I need its recorded pKd.
Response: 7.88

Request: I have this binder here, Eterna 8603 (Same State 1) (ssRNA) RNA: AUAAAACAUGAGGAUCACCCAUGUCAACAAAGUCGAGGAUAUGGGCAAAUAAAAUAAGAACCAGAAGGCGUAUAAU , and I need its recorded pKd.
Response: 6.28

Request: I have this binder here, Eterna 13730 (Sensor v3, turn-off variant 1) (ssRNA) RNA: CCGAGGAAGCGGUCCUAUGACAUGAGGAUCACCCAUGUACCUCGCUACGAGCUUUUUGCUCGUCUUAUAAUUCUCGG , and I need its recorded pKd.
Response: 7.63

Request: I have this binder here, Eterna 6461493 (Inverted Same State NG 1) (ssRNA) RNA: GUGCUUUGGGAGAAGGCCGUAUGCAAAGCAUACGGAGGAUAUUCAUACCGGAAACGGACAUGAGGAUCACCCAUGUGGCACAAA , and I need its recorded pKd.
Response: 5.92
